// data source = paper PMC10877925

target: PfEGF1-α (Plasmodium falciparum, UniProt Q8I0P6); construct: recombinant, pET28a vector, E. coli BL21; immobilised on NTA biosensor for BLI; test: bio-layer interferometry
Sequence (Q8I0P6 1-443): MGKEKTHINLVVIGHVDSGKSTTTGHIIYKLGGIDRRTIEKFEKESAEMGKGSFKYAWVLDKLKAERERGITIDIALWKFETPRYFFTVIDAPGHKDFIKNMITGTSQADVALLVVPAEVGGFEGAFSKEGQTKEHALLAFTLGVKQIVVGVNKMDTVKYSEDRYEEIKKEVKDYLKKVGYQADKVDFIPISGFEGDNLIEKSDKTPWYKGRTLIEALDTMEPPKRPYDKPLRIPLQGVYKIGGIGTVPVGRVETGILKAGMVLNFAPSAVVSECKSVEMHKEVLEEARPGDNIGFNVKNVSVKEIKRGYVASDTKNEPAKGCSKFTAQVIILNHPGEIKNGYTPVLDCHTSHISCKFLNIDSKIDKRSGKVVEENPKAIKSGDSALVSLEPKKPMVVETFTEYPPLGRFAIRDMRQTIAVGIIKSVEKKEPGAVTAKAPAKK
reported.metric: Kd (µM)
# unit: µM | format: bare number

Lookup: Under PfEGF1-α (Plasmodium falciparum, UniProt Q8I0P6): report Kd of "CC1=C(O)C(=O)C=C2C1=CC=C1[C@@]2(C)CC[C@@]2(C)[C@@H]3C[C@](C)(C(=O)O)CC[C@]3(C)CC[C@]12C" .
Found: 243
